- System: RARg:RXRa (NR concentration 270 nM, RXRa partner concentration 90 nM)
- Experimental details: PBM binding z-score (relative to random genomic background probes); higher = stronger binding; sequences stand for … in GC…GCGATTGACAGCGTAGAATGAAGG
Listing of entries alongside the reported PBM binding z-score.
Outcome measure: PBM binding z-score

Seq text | Outcome measure | Test value
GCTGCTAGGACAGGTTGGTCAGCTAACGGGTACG | PBM binding z-score | -0.345
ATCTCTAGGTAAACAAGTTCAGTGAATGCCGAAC | PBM binding z-score | 0.719
GCAAGCAGGCCATTTGGGTCACTCAATGACGGGC | PBM binding z-score | 0.948
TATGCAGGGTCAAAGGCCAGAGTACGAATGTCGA | PBM binding z-score | 5.45
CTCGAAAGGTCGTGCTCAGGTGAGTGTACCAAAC | PBM binding z-score | 5.21
TCTGATAGGTCAACGATGGTCAGCTAATCTGCTA | PBM binding z-score | 5.15
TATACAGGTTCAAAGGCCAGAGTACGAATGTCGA | PBM binding z-score | 2.45
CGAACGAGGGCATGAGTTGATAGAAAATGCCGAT | PBM binding z-score | 1.29
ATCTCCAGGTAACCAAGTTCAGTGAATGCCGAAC | PBM binding z-score | 0.664
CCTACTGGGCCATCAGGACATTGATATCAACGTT | PBM binding z-score | 0.263
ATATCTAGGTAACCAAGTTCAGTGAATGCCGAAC | PBM binding z-score | 0.963
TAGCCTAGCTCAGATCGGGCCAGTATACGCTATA | PBM binding z-score | -0.862
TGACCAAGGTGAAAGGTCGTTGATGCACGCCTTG | PBM binding z-score | 4.18
GCTATTAGTTGAAAGGGCAACCGGATGATTCTCG | PBM binding z-score | 1.41
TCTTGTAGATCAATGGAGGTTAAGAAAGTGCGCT | PBM binding z-score | 0.419
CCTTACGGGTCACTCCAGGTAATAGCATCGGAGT | PBM binding z-score | 4.2
TCATATAGGTAATACAGGTGAAACTCGGCATCTA | PBM binding z-score | 0.826
CCTATTAGTTGACCATAAGGGCAACCTAAGCTCG | PBM binding z-score | 1.47
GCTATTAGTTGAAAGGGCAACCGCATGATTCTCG | PBM binding z-score | 1.4
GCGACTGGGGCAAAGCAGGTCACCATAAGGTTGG | PBM binding z-score | 2.56
TCTTGTAGATCAAACAGGTTAAGAAAGCCTGAGT | PBM binding z-score | 0.214
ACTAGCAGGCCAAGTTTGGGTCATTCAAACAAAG | PBM binding z-score | 2.22
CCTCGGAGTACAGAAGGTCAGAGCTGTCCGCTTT | PBM binding z-score | 2.77
CGTCCAAGGACAGAGAGGTCAGTGAATGCCGAGT | PBM binding z-score | 3.21
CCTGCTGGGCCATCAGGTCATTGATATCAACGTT | PBM binding z-score | 2.06
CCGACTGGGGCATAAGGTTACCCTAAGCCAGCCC | PBM binding z-score | 1.27
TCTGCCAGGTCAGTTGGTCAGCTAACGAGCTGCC | PBM binding z-score | 2.86
ATCTCTAGGTAAGAGTTCAGTGAATCCCGAGGAT | PBM binding z-score | 1.21
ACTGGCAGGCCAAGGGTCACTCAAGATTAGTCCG | PBM binding z-score | 4.14
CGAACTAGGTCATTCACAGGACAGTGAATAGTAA | PBM binding z-score | 4.97
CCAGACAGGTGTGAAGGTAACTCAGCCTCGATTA | PBM binding z-score | -0.276
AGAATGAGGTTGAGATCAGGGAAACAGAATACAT | PBM binding z-score | 0.514
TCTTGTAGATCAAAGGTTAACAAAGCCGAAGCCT | PBM binding z-score | 1.93
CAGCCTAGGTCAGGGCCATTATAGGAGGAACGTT | PBM binding z-score | 3.08
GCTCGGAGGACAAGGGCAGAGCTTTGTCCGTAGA | PBM binding z-score | -0.153
TCTAGTTGGTCCCGGAGGTCACACACGACGGGTA | PBM binding z-score | 3.99
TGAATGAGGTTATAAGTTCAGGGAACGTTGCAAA | PBM binding z-score | 4.88
TCGAGTAGGTTACCAAGGGGGCATTCAGCTTTCT | PBM binding z-score | 4.64
TCTAGTTGGTCAAAGGTTACACACTCGAAATGCG | PBM binding z-score | 4.04
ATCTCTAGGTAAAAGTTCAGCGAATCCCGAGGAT | PBM binding z-score | 2.88
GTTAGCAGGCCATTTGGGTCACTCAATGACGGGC | PBM binding z-score | 1.15
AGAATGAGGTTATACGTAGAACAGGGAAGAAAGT | PBM binding z-score | 1.6
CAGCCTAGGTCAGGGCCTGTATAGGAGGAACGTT | PBM binding z-score | 2.68
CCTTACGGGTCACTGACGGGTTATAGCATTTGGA | PBM binding z-score | 5.58
ATATGTTGGTTAAGGGTCATTCAGGTTGGTTCGC | PBM binding z-score | 4.07
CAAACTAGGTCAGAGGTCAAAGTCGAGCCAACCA | PBM binding z-score | 7.59
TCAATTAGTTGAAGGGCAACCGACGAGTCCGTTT | PBM binding z-score | 0.369
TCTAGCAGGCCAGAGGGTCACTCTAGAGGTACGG | PBM binding z-score | 2.42
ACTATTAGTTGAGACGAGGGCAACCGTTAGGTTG | PBM binding z-score | 0.448
CCTGCTAGGTCATTGTCAGCTAATCTACAGTATG | PBM binding z-score | 3.06
ATCTCTAGGTAAGACTCAGTTCACTGAAGAACGC | PBM binding z-score | 0.678

* * *

- System: RARg:RXRa (NR concentration 270 nM, RXRa partner concentration 90 nM)
- Experimental details: PBM binding z-score (relative to random genomic background probes); higher = stronger binding; sequences stand for … in GC…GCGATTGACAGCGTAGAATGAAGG
Just so you know, the groups by PBM binding z-score go like this: lo: < 0.8; med: ≥ 0.8 and < 4; hi: ≥ 4

Seq text | Assigned category
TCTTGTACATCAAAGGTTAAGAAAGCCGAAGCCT | med
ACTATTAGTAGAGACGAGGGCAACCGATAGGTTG | lo
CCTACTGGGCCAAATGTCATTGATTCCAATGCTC | lo
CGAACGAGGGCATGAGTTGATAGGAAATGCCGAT | med
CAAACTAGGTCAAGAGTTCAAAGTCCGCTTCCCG | hi
AGAATGATGTTACCAAAGATCAGGGAAACGCTTG | lo
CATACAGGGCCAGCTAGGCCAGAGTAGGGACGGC | lo
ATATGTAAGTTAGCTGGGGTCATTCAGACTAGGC | med
TCATATAGGTCAAGGTGAAAGTCGAACGATATGA | hi
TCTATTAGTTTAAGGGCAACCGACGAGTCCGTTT | med
ATCTCTAGATAAGACTCAGTTCAGTGAAGAACGC | lo
CATACAGGGTCAACTAGGCCAGAGTAGGGACGGC | hi
CCTCGGCGGACAGAAGGTCAGAGCTGTCCGCTTT | med
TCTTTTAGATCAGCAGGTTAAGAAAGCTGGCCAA | lo
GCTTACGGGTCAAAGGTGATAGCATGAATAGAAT | hi
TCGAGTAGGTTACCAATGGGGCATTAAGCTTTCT | med
CCAGACAGGTGAACGGTAACTCAGTCTGGTACGC | lo
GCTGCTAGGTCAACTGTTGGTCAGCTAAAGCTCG | hi
AATACAGGGTCATCCTAGGCCAGAGTACGCACAG | hi
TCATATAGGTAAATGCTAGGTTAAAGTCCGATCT | lo
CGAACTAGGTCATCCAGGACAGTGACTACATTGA | hi
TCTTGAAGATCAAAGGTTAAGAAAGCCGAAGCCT | med
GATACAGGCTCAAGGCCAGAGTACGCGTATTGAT | lo
TCTTGTAGATCAACAGGAGGTTATGAAAGATCGA | lo
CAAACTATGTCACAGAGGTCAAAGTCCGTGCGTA | hi
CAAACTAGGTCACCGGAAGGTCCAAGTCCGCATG | hi

* * *

- System: RARa homodimer (NR concentration 270 nM)
- Experimental details: PBM binding z-score (relative to random genomic background probes); higher = stronger binding; sequences stand for … in GC…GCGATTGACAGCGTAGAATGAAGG
Where PBM binding z-score equals or exceeds 0.3, the correct label is class 1; where it does not, the label is class 0.

Seq text | Assigned category
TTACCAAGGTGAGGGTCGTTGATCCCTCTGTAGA | class 0
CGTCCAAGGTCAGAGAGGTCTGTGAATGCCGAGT | class 1
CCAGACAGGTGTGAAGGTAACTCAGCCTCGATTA | class 1
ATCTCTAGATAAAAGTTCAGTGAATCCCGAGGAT | class 1
AGAATGAAGTTATACGTAGATCAGGGAAGAAAGT | class 0
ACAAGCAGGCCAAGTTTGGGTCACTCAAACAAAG | class 0
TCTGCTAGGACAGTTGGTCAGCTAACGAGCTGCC | class 0
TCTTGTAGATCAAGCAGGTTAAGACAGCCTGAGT | class 0
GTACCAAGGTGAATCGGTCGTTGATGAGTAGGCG | class 0
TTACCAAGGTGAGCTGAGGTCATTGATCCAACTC | class 1
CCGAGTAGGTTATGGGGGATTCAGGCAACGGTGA | class 1
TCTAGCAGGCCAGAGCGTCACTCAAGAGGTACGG | class 0

Provenance of the data: the supplement of paper PMC6555819
